- Tested on: A431
- measurementProtocol: MTT cytotoxicity assay, A431 cells
- Assay type: cell-based
- protocolConditions: Homo sapiens, A-431; MTT assay after 72 h treatment; wild-type EGFR-overexpressing erlotinib-sensitive A431; read-out: Inhibition of Cell Growth (IC50 µM) A431
measurementType: IC50 (µM)
Report as a plain number; the unit µM is understood.

stdin: # input compound: Cl.Cl.NCCNc1ccc2ncnc(Nc3cccc(Br)c3)c2c1 [Compound L2, dihydrochloride] ; wanted: its IC50
stdout: 9.15
